I'd appreciate it if you could supply herbicidal rating values for the items below.
System: Downy Brome
Test: Post-emergent herbicidal test; also: ranges in brackets are in %
Assay type: in vivo
Conditions: 4 WAT, 11.2 kg/h
Experimental: The post-emergent tests were conducted as follows: The active ingredients are applied in spray form to two or three week old specimens of various plant species. The spray, a solution or wettable powder suspension containing the appropriate rate of active ingredient to give the desired test rate and a surfactant, is applied to the plants. The compounds were also tested by utilizing the above procedure on the following plant species: […]

Solved entries (count: 4):
Which herbicidal rating reading was recorded for the molecule CCCCCOC(=O)c1ccccc1-c1cc(-c2cccc(C(F)(F)F)c2)no1 [Example 7] ? 0 (0-24)

Which herbicidal rating reading was recorded for the molecule COC(=O)c1ccccc1-c1cc(-c2cccc(C(F)(F)F)c2)no1 [Example 3] ? 2 (50-74)

Which herbicidal rating reading was recorded for the molecule CC(C)OC(=O)c1ccccc1-c1cc(-c2cccc(C(F)(F)F)c2)no1 [Example 8] ? 0 (0-24)

Which herbicidal rating reading was recorded for the molecule CCCCOC(=O)c1ccccc1-c1cc(-c2cccc(C(F)(F)F)c2)no1 [Example 6] ? 0 (0-24)

Here's the next entry for you.
Which herbicidal rating reading was recorded for the molecule O=C(O)c1ccccc1-c1cc(-c2cccc(C(F)(F)F)c2)no1 [Example 11] ? 2 (50-74)

====

test system: Morningglory; test: Post-emergent herbicidal test; format: in vivo; conditions: 4 WAT, 11.2 kg/h; also: ranges in brackets are in %
Measured Parameter: herbicidal rating

Would you mind listing herbicidal rating for each of the following compounds?
1. CCCCOC(=O)c1ccccc1-c1cc(-c2cccc(C(F)(F)F)c2)no1 [Example 6]
2. COC(=O)c1ccccc1-c1cc(-c2cccc(C(F)(F)F)c2)no1 [Example 3]
3. O=C(O)c1ccccc1-c1cc(-c2cccc(C(F)(F)F)c2)no1 [Example 11]
4. CCCCCOC(=O)c1ccccc1-c1cc(-c2cccc(C(F)(F)F)c2)no1 [Example 7]
5. CC(C)OC(=O)c1ccccc1-c1cc(-c2cccc(C(F)(F)F)c2)no1 [Example 8]

2 (50-74)
2 (50-74)
1 (25-49)
2 (50-74)
2 (50-74)

====

system: Velvetleaf; assay: Post-emergent herbicidal test; assay type: in vivo; details: 4 WAT, 11.2 kg/h; also: ranges in brackets are in %
Measured Parameter: herbicidal rating

Solved entries (count: 4):
Which herbicidal rating reading was recorded for the compound CCCCCOC(=O)c1ccccc1-c1cc(-c2cccc(C(F)(F)F)c2)no1 ? 1 (25-49)

Which herbicidal rating reading was recorded for the compound O=C(O)c1ccccc1-c1cc(-c2cccc(C(F)(F)F)c2)no1 ? 1 (25-49)

Which herbicidal rating reading was recorded for the compound CCCCOC(=O)c1ccccc1-c1cc(-c2cccc(C(F)(F)F)c2)no1 ? 1 (25-49)

Which herbicidal rating reading was recorded for the compound COC(=O)c1ccccc1-c1cc(-c2cccc(C(F)(F)F)c2)no1 ? 2 (50-74)

More entries:
Which herbicidal rating reading was recorded for the compound CC(C)OC(=O)c1ccccc1-c1cc(-c2cccc(C(F)(F)F)c2)no1 ? 0 (0-24)

====

tested on: Barnyardgrass; assay: Post-emergent herbicidal test; format: in vivo; settings: 4 WAT, 11.2 kg/h; also: ranges in brackets are in %
I'd appreciate it if you could supply herbicidal rating values for the items below.

Solved entries (count: 3):
Which herbicidal rating reading was recorded for the compound CCCCCOC(=O)c1ccccc1-c1cc(-c2cccc(C(F)(F)F)c2)no1 [Example 7] ? 1 (25-49)

Which herbicidal rating reading was recorded for the compound CC(C)OC(=O)c1ccccc1-c1cc(-c2cccc(C(F)(F)F)c2)no1 [Example 8] ? 1 (25-49)

Which herbicidal rating reading was recorded for the compound COC(=O)c1ccccc1-c1cc(-c2cccc(C(F)(F)F)c2)no1 [Example 3] ? 3 (75-99)

Would you mind listing herbicidal rating for each of the following compounds?
1. CCCCOC(=O)c1ccccc1-c1cc(-c2cccc(C(F)(F)F)c2)no1 [Example 6]
2. O=C(O)c1ccccc1-c1cc(-c2cccc(C(F)(F)F)c2)no1 [Example 11]

1: 2 (50-74); 2: 2 (50-74)

====

Test system: Cocklebur
Test: Post-emergent herbicidal test; also: ranges in brackets are in %
Format: in vivo
Conditions: 4 WAT, 11.2 kg/h
Method: The post-emergent tests were conducted as follows: The active ingredients are applied in spray form to two or three week old specimens of various plant species. The spray, a solution or wettable powder suspension containing the appropriate rate of active ingredient to give the desired test rate and a surfactant, is applied to the plants. The compounds were also tested by utilizing the above procedure on the following plant species: […]
Measured Parameter: herbicidal rating

Solved entries (count: 4):
Which herbicidal rating reading was recorded for the compound CCCCCOC(=O)c1ccccc1-c1cc(-c2cccc(C(F)(F)F)c2)no1 ? 2 (50-74)

Which herbicidal rating reading was recorded for the compound CCCCOC(=O)c1ccccc1-c1cc(-c2cccc(C(F)(F)F)c2)no1 ? 1 (25-49)

Which herbicidal rating reading was recorded for the compound CC(C)OC(=O)c1ccccc1-c1cc(-c2cccc(C(F)(F)F)c2)no1 ? 1 (25-49)

Which herbicidal rating reading was recorded for the compound COC(=O)c1ccccc1-c1cc(-c2cccc(C(F)(F)F)c2)no1 ? 2 (50-74)

More entries:
Which herbicidal rating reading was recorded for the compound O=C(O)c1ccccc1-c1cc(-c2cccc(C(F)(F)F)c2)no1 ? 1 (25-49)
